biological target: human M4 receptor (Homo sapiens); assay: Calcium flux assay using fluorescent imaging (M4 PAM FLIPR assay); assay type: cell-based; set-up: expressed in transfected cells; host or cells: CHO (monoclonal line, clone 2); settings: Table 1; CHO cells expressing human M4+Gqi5; acetylcholine EC20
Sequence (P08173 whole entry): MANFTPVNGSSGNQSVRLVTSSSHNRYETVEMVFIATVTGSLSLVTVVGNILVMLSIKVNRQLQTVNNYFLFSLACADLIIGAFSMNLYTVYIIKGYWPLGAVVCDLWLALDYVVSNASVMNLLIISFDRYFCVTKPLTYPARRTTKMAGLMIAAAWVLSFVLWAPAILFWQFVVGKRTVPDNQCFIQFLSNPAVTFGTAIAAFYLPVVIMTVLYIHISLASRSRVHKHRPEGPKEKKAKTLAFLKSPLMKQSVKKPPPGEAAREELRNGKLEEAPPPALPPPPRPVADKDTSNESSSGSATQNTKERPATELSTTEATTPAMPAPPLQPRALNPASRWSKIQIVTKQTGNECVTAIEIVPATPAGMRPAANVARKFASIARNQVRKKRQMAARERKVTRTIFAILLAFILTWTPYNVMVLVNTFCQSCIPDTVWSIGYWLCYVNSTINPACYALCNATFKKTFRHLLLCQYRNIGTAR
value type: pEC50
# pEC50 = -log10(concentration in molar units)

>  <smiles repr>
Cc1nc2c(c(C)c1Cl)CN(C(=O)[C@@H]1CCN(c3ccc(C(F)(F)F)nn3)C1)C2

>  <target desc>
human M4 receptor (Homo sapiens)

>  <endpoint result>
5.70

$$$$
>  <smiles repr>
COc1cnc(N2CC[C@@H](C(=O)N3Cc4nc(C)c(Cl)c(C)c4C3)C2)cn1

>  <target desc>
human M4 receptor (Homo sapiens)

>  <endpoint result>
6.09

$$$$
>  <smiles repr>
Cc1nc2c(c(C)c1Cl)CN(C(=O)[C@@H]1CCN(c3ccnc(C#N)n3)C1)C2

>  <target desc>
human M4 receptor (Homo sapiens)

>  <endpoint result>
6.63

$$$$

Notebook: pull reported pEC50 for human M4 receptor (Homo sapiens), entry COc1cncc(N2CC[C@@H](C(=O)N3Cc4nc(C)c(Cl)c(C)c4C3)C2)n1 6.24

Try the compound Cc1nc2c(c(C)c1Cl)CN(C(=O)[C@@H]1CCN(c3cnc(C(F)(F)F)nc3)C1)C2 5.71

Try the compound COc1ncc(N2CC[C@@H](C(=O)N3Cc4nc(C)c(Cl)c(C)c4C3)C2)cn1 5.63

Try the compound Cc1nc2c(c(C)c1Cl)CN(C(=O)[C@@H]1CCN(c3cncc(OC(F)F)c3)C1)C2 6.62

Try the compound Cc1ncc(N2CC[C@@H](C(=O)N3Cc4nc(C)c(Cl)c(C)c4C3)C2)cn1 6.41

----------
target: human M4 receptor (Homo sapiens); assay: cAMP assay for M4 positive allosteric modulators (M4 PAM cAMP assay); format: cell-based; design: expressed in transfected cells; host or cells: CHO-K1; settings: Table 1; CHO-K1 cells expressing human M4; forskolin 7.5 μM + acetylcholine EC20 (0.2 nM)
With a cut-off of 600 nM, any EC50 strictly below it is called YES; any EC50 meeting it or above is called NO.

>  <smiles repr>
Cc1nc2c(c(C)c1Cl)CN(C(=O)[C@@H]1CCN(c3cncc(OC(F)F)c3)C1)C2

>  <answer label>
YES

$$$$
>  <smiles repr>
COCc1nc2c(c(C)c1Cl)CN(C(=O)[C@@H]1CCN(c3ccnc(C(F)F)c3)C1)C2

>  <answer label>
YES

$$$$
>  <smiles repr>
COc1cc(N2CC[C@@H](C(=O)N3Cc4nc(C)c(Cl)c(C)c4C3)C2)ccn1

>  <answer label>
YES

$$$$

Now for another entry.
I wonder whether COc1ncc(N2CC[C@@H](C(=O)N3Cc4nc(C)c(Cl)c(C)c4C3)C2)cn1 has EC50 below 600 nM. Can you tell? YES

----------
// reported EC50 per item
target: human M4 receptor (Homo sapiens); assay: Calcium flux assay using fluorescent imaging (M4 PAM FLIPR assay); assay type: cell-based; parameters: expressed in transfected cells; host or cells: CHO (monoclonal line, clone 2); settings: Table 1; CHO cells expressing human M4+Gqi5; acetylcholine EC20
All answers are understood in nM, so give the number only.

In the examples that follow, each entry is paired with its recorded EC50.
>  <compound>
COCc1nc2c(c(C)c1Cl)CN(C(=O)[C@@H]1CCN(c3cccnc3)C1)C2 [Example 56]

>  <EC50 / nM>
486

$$$$
>  <compound>
Cc1nc2c(c(C)c1Cl)CN(C(=O)[C@@H]1CCN(c3cc(C(F)F)ncn3)C1)C2 [Example 54]

>  <EC50 / nM>
247

$$$$

Any idea what its EC50 is? The compound is Cc1nc2c(c(C)c1Cl)CN(C(=O)[C@@H]1CCN(c3cc(C4CC4)ncn3)C1)C2 [Example 28] 350

Try the compound COCc1nc2c(c(C)c1Cl)CN(C(=O)[C@@H]1CCN(c3ccnnc3)C1)C2 [Example 59] 209

Try the compound Cc1nc2c(c(C)c1Cl)CN(C(=O)[C@@H]1CCN(c3cccnc3)C1)C2 [Example 1] 387

Try the compound COCc1nc2c(c(C)c1Cl)CN(C(=O)[C@@H]1CCN(c3ccncn3)C1)C2 [Example 55] 42

Try the compound Cc1nc2c(c(C)c1Cl)CN(C(=O)[C@@H]1CCN(c3ccnnc3)C1)C2 [Example 38] 274

Try the compound Cc1nc2c(c(C)c1Cl)CN(C(=O)[C@@H]1CCN(c3cncc(S(C)(=O)=O)c3)C1)C2 [Example 19] 442

Try the compound Cc1nc2c(c(C)c1Cl)CN(C(=O)[C@@H]1CCN(c3cnc(N(C)C)nc3)C1)C2 [Example 36] 1800

Try the compound COc1ccnc(N2CC[C@@H](C(=O)N3Cc4nc(C)c(Cl)c(C)c4C3)C2)n1 [Example 48] 2200
